The reported numbers originate from patent US8334292B1.

Molecular target: ΔF508 CTFR (Homo sapiens, UniProt P13569, DEL508-508)
Construct: expressed in transfected cells; host or cells: FRT epithelial cells (Fischer rat thyroid)
Sequence (P13569 with tags, fused parts or gaps DEL508-508): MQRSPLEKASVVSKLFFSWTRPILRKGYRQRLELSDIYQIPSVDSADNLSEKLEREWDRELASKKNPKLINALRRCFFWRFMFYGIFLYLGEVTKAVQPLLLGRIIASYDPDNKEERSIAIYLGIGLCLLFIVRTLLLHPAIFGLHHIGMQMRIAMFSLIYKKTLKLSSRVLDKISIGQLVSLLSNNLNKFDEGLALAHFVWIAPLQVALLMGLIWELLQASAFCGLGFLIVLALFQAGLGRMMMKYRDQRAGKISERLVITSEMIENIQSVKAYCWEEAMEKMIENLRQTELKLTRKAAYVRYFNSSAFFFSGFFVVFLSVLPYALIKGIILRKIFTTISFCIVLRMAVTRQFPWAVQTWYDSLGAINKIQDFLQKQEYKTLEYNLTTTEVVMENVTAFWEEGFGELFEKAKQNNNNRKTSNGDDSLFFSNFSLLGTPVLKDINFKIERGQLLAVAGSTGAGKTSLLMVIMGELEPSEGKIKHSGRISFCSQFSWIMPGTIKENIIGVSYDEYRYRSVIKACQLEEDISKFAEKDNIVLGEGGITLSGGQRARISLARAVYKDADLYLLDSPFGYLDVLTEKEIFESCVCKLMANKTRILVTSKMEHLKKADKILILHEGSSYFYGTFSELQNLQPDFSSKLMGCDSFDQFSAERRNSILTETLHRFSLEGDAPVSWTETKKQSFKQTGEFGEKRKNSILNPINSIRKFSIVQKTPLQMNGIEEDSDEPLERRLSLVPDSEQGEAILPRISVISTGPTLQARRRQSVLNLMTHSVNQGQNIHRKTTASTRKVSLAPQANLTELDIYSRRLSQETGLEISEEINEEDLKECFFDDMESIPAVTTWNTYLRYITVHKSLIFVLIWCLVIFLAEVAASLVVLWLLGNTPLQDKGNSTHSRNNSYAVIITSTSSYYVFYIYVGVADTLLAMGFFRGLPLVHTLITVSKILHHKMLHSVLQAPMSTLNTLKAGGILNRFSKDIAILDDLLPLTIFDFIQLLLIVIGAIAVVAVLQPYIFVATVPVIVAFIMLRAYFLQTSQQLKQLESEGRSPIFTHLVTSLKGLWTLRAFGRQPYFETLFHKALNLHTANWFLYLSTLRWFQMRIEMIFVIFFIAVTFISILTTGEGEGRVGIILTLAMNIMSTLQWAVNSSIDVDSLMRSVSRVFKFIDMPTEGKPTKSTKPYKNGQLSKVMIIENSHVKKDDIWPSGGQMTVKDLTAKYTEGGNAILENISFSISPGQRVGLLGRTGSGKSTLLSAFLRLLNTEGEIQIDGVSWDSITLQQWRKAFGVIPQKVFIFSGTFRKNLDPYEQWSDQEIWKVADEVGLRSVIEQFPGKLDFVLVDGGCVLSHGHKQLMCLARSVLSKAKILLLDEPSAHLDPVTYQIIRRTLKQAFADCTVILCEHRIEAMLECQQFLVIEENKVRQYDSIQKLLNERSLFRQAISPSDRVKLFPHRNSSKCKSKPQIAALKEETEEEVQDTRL
Experiment: Corrector assay, FRT cell electrophysiological (Ussing chamber) assay
Format: cell-based
Details: FRT cells treated 24 hours with 3 μM compound; total change in ISC normalized to 10 μM reference corrector C17
quantity.kind: Corrector Efficacy

CS(=O)(=O)N1CC(Oc2nc(N[C@H]3CC[C@@H](C)CC3)ncc2-c2ccc(N3CCOCC3)cc2)C1 [Example 59] ... ++ (++=0.3-0.6)
C[C@H]1CC[C@@H](Nc2ncc(-c3ccc(O[C@H]4CCOC4)cc3)c(O[C@@H]3CCOC3)n2)CC1.Cl [Example 6] ... ++ (++=0.3-0.6)
CC1CCCC(C)C1Nc1ncc(-c2ccc(O[C@H]3CCOC3)cc2)c(O[C@@H]2CCOC2)n1 (stereo partly shown) [Example 170] ... +++ (+++=>0.6)
CC1CCC(Nc2ncc(-c3ccc(OC4CCN(C(=O)N(C)C)C4)cc3)c(O[C@@H]3CCOC3)n2)CC1 (stereo partly shown) [Example 112] ... ++ (++=0.3-0.6)
CC1CCC(Nc2ncc(-c3ccc(O[C@@H]4CCOC4)cc3)c(OC3CCOCC3)n2)CC1 (stereo partly shown) [Example 93] ... +++ (+++=>0.6)
CC1CCC(Nc2ncc(-c3ccc(O[C@H]4CCOC4)cc3)c(OC3CN(S(=O)(=O)N(C)C)C3)n2)CC1 (stereo partly shown) [Example 214] ... +++ (+++=>0.6)
CC1CCC(Nc2ncc(-c3ccc(O[C@H]4CCOC4)cc3)c(OC3CCN(S(C)(=O)=O)CC3)n2)CC1 (stereo partly shown) [Example 152] ... +++ (+++=>0.6)
CN(C)S(=O)(=O)N1CC(Oc2nc(N[C@H]3CC[C@@H](C)CC3)ncc2-c2ccc(N3CCOCC3)cc2)C1 [Example 1] ... +++ (+++=>0.6)
CS(=O)(=O)N1CC[C@@H](COc2nc(N[C@H]3CC[C@@H](C)CC3)ncc2-c2ccc(N3CCOCC3)cc2)C1 [Example 78] ... ++ (++=0.3-0.6)
CS(=O)(=O)N1CC(COc2nc(N[C@H]3CC[C@@H](C)CC3)ncc2-c2ccc(N3CCOCC3)cc2)C1 [Example 80] ... ++ (++=0.3-0.6)

For every item in the list below, what is its measured Corrector Efficacy?
1. COC(=O)N1CCC(Oc2ccc(-c3cnc(NC4CCC(C)CC4)nc3O[C@@H]3CCOC3)cc2)C1 (stereo partly shown) [Example 103]
2. COCCc1ccc(-c2cnc(N[C@H]3CC[C@@H](C)CC3)nc2OC2CCN(C(=O)OC)CC2)cc1 [Example 206]
3. Cc1nc(N[C@H]2CC[C@@H](C)CC2)nc(O[C@@H]2CCOC2)c1-c1ccc(N2CCOCC2)cc1 [Example 43]
4. CC1CCC(Nc2ncc(-c3ccc(O[C@H]4CCOC4)cc3)c(OC3CN(S(=O)(=O)C4CC4)C3)n2)CC1 (stereo partly shown) [Example 215]
5. CC1CCC(Nc2ncc(-c3ccc(O[C@@H]4CCOC4)cc3)c(OC3CN(S(=O)(=O)N(C)C)C3)n2)CC1 (stereo partly shown) [Example 207]
6. COCCOc1ccc(-c2cnc(N[C@H]3CC[C@@H](C)CC3)nc2OC2CN(S(C)(=O)=O)C2)cc1 [Example 153]

*A*
++ (++=0.3-0.6)
++ (++=0.3-0.6)
++ (++=0.3-0.6)
+++ (+++=>0.6)
+++ (+++=>0.6)
++ (++=0.3-0.6)

----------
Biological target: ΔF508 CTFR (Homo sapiens, UniProt P13569, DEL508-508)
Construct: expressed in transfected cells; host or cells: FRT epithelial cells (Fischer rat thyroid)
Experiment: Potentiator assay, FRT cell electrophysiological (Ussing chamber) assay
Format: cell-based
Conditions: change in ISC after acute addition of 1 μM compound to mucosal side of vehicle treated FRT cells divided by total change in ISC after 1 μM compound, 100 μM IBMX, 20 μM genistein
quantity.kind: Potentiator Efficacy

Known results for compounds:
CC1CCC(Nc2ncc(-c3ccc(O[C@@H]4CCOC4)cc3)c(OC3CCOCC3)n2)CC1 (stereo partly shown) [Example 93] ... ++ (++=0.1-0.25)
COCCc1ccc(-c2cnc(N[C@H]3CC[C@@H](C)CC3)nc2OC2CCN(C(=O)OC)CC2)cc1 [Example 206] ... + (+=<0.1)
CS(=O)(=O)N1CC[C@@H](COc2nc(N[C@H]3CC[C@@H](C)CC3)ncc2-c2ccc(N3CCOCC3)cc2)C1 [Example 78] ... + (+=<0.1)
Cc1nc(N[C@H]2CC[C@@H](C)CC2)nc(O[C@@H]2CCOC2)c1-c1ccc(N2CCOCC2)cc1 [Example 43] ... + (+=<0.1)
CC1CCC(Nc2ncc(-c3ccc(O[C@H]4CCOC4)cc3)c(OC3CN(S(=O)(=O)N(C)C)C3)n2)CC1 (stereo partly shown) [Example 214] ... + (+=<0.1)
COCCOc1ccc(-c2cnc(N[C@H]3CC[C@@H](C)CC3)nc2OC2CN(S(C)(=O)=O)C2)cc1 [Example 153] ... + (+=<0.1)

Return reported Potentiator Efficacy values for all items listed beneath this line.
1. CC1CCC(Nc2ncc(-c3ccc(O[C@H]4CCOC4)cc3)c(OC3CCN(S(C)(=O)=O)CC3)n2)CC1 (stereo partly shown) [Example 152]
2. CN(C)S(=O)(=O)N1CC(Oc2nc(N[C@H]3CC[C@@H](C)CC3)ncc2-c2ccc(N3CCOCC3)cc2)C1 [Example 1]
3. COC(=O)N1CCC(Oc2ccc(-c3cnc(NC4CCC(C)CC4)nc3O[C@@H]3CCOC3)cc2)C1 (stereo partly shown) [Example 103]

*A*
["+++ (+++=>0.25)", "++ (++=0.1-0.25)", "+ (+=<0.1)"]

Lab note: each compound below needs its Potentiator Efficacy filled in.
1. CC1CCC(Nc2ncc(-c3ccc(O[C@@H]4CCOC4)cc3)c(OC3CN(S(=O)(=O)N(C)C)C3)n2)CC1 (stereo partly shown) [Example 207]
2. CC1CCC(Nc2ncc(-c3ccc(OC4CCN(C(=O)N(C)C)C4)cc3)c(O[C@@H]3CCOC3)n2)CC1 (stereo partly shown) [Example 112]
3. CC1CCC(Nc2ncc(-c3ccc(O[C@H]4CCOC4)cc3)c(OC3CN(S(=O)(=O)C4CC4)C3)n2)CC1 (stereo partly shown) [Example 215]

*A*
1. + (+=<0.1)
2. + (+=<0.1)
3. +++ (+++=>0.25)

I'm hoping you can list Potentiator Efficacy for every compound here, please.
1. CS(=O)(=O)N1CC(COc2nc(N[C@H]3CC[C@@H](C)CC3)ncc2-c2ccc(N3CCOCC3)cc2)C1 [Example 80]
2. C[C@H]1CC[C@@H](Nc2ncc(-c3ccc(O[C@H]4CCOC4)cc3)c(O[C@@H]3CCOC3)n2)CC1.Cl [Example 6]
3. CC1CCCC(C)C1Nc1ncc(-c2ccc(O[C@H]3CCOC3)cc2)c(O[C@@H]2CCOC2)n1 (stereo partly shown) [Example 170]
4. CS(=O)(=O)N1CC(Oc2nc(N[C@H]3CC[C@@H](C)CC3)ncc2-c2ccc(N3CCOCC3)cc2)C1 [Example 59]

*A*
+++ (+++=>0.25)
++ (++=0.1-0.25)
+ (+=<0.1)
+ (+=<0.1)
